Data provenance: the EternaBench riboswitch data

In this section, each of the sequences is paired with its reported apparent Kd.
# Test system: MS2 coat protein
# Assay method text: apparent Kd, MS2 coat protein; higher = weaker binding; RNA-MaP array; FMN 200 µM where present
# Particulars: ligand present: flavin mononucleotide; designed as: OFF switch for flavin mononucleotide
Output spec: scalar in nM, unitless text.

Worked cases, apparent Kd given:
> print(dat)
                                   sequence  readout.name  result.value
1  UACUAAAAGGAGGAUAUCGUAUCGGAGACGAUACGAGAAGGCUUAACAUGAGGAUCACCCAUGUUCUUCAAUAU   apparent Kd          18.2
2  UGGACUGGGCAGAAGGGACAUGAGGAUCACCCAUGUCUUGGGCUACUUCAGUCAGGAUAUGCCCAAUAAAUAUCCGUGCAUCAA   apparent Kd          67.1
3  GAUCAACAUGAGGAUCACCCAUGUGAGGAUAUGAUACUAUGUACUUCGGUACAUAGUAUCAGAAGGCAUGUAAA   apparent Kd          42.5
4  UUUUAACAUGAGGAUCACCCAUGUGAGGAUAUCGAAAUUUAUAUUAAUAUUAUUAUUACGAGAAGGCACAUUUU   apparent Kd          91.1
5  GCUAUAGAUGUAGGAUAUCAUAUAGAAGCUAUGUGAGAAGGACAUGAGGAUCACCCAUGUCAAUGGCUGGAGCGAAGUUAUGGC   apparent Kd          35.2
6  UUGUAGUACGUAGGAUAUCAAUGAGGAUCACCCUGAGAAGGACGUGAGGACAUGAGGAUCACCCAUGUGGAUCACCCAUGUCAU   apparent Kd           145

Exercise: Please report the measured apparent Kd for UUAAGUCAUGUAGGAUAUCCGAGGCGAAGCGUUGGAGAAGGACAUGAGGAUCACCCAUGUUCUAGCGUCUGAGUACAGAUGCAA
Key: 33.7

Exercise: Please report the measured apparent Kd for UGGGUAAAUGUAGGAUAUCCAUAUUAAUAAUAUGGAGAAGGACAUGAGGAUCACCCAUGUACAGGGAAUUACCCAUUUCCUCUC
Key: 287

Exercise: Please report the measured apparent Kd for CAGCCCUGAGGAUAUCCAUCCUUGUACAUGAGGAUCACCCAUGUUUCCCUCUGGGCUUUCGGAGAAGGCAGGUAUC
Key: 61.7

Exercise: Please report the measured apparent Kd for CUAUUACGAGGAUAUGAUUUAAAUAACAUGAGGAUCACCCAUGUUUUUACGUUAUUAUGUUCAGAAGGCGUAUUGU
Key: 19.4

Exercise: Please report the measured apparent Kd for AGAAACUACGAGAAGGACAUGUGGUCCUUCAGUUACAUGAGGAUCACCCAUGUAGGAUAUCGUAGUUUCAGGAUCGUGAGAUCC
Key: 12.5
